system name: bovine brain clathrin assembly protein-2 (AP-2)
experimental protocol: Binding to clathrin assembly protein-2, competition with tritiated inositoltetraphosphate
protocol conditions: competition with 10 nM tritiated inositoltetraphosphate, on ice, ten minutes
measured metric: IC50 (nM)

[[record]]
compound = "O=P(O)(O)OC1C(O)C(O)C(O)C(OP(=O)(O)O)C1OP(=O)(O)O [IP3, D-myo-inositol-1,2,6-trisphosphate]"
measured_metric = "IC50"
endpoint_value = 600

